target.under.test: JAK1 (Homo sapiens (Human), UniProt P23458)
Sequence (P23458 875-1153): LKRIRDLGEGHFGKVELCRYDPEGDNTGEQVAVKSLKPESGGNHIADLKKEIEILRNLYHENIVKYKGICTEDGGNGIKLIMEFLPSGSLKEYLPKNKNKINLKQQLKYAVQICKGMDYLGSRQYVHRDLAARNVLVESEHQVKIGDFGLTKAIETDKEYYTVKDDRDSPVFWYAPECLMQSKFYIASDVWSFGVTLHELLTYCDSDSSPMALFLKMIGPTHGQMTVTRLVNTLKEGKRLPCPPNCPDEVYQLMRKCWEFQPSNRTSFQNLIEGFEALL
test.summary: Jak biochemical HTRF assay, JAK1
condition.parameters: HTRF biochemical assay, recombinant GST-tagged catalytic domain; read-out: JAK1 IC50
Structures can show the parent of a compound that is named as a salt.
readout.kind: IC50 (nM)

Field: example entries. Status: answers known.
N#C[C@H]1CCCC[C@@H]1n1nc(Nc2ccc(C(=O)O)cc2)c2c(=O)[nH]ccc21 [Example 16-1, HCl]	0.16
CC(C)(C)OC(=O)CN1Cc2cc(Nc3nn([C@H]4CCCC[C@@H]4C#N)c4cc[nH]c(=O)c34)ccc2S1(=O)=O [Example 3-151]	0.041
N#CCC1(n2nc(Nc3ccc(C(N)C(F)F)cc3)c3c(=O)[nH]ccc32)CCCCC1 (single isomer, unassigned) [Example 9-2]	0.22
CC(C)OC(=O)C(C)(C)C(O)(c1ccc(Nc2nn([C@H]3CCCC[C@@H]3C#N)c3cc[nH]c(=O)c23)cc1)C(F)(F)F (single isomer, unassigned) [Example 3-120]	1
CCNC(c1ccc(Nc2nn([C@H]3CCC[C@@H]3C#N)c3cc[nH]c(=O)c23)cc1)C(F)(F)F (single isomer, unassigned) [Example 3-113]	0.15
N#C[C@H]1CCCC[C@@H]1n1nc(Nc2ccc3c(c2)CNC3C(F)F)c2c(=O)[nH]ccc21 (single isomer, unassigned) [Example 15-28]	0.25

P = CC(C)C(c1ccc(Nc2nn([C@H]3CCCC[C@@H]3C#N)c3cc[nH]c(=O)c23)cc1)n1nccn1 (single isomer, unassigned) [Example 15-31]
Q = CN1Cc2cc(Nc3nn([C@H]4CCC[C@@H]4C#N)c4cc[nH]c(=O)c34)ccc2S1(=O)=O [Example 3-102]
R = N#C[C@H]1CCC[C@@H]1n1nc(Nc2ccc(S(N)(=O)=O)cc2)c2c(=O)[nH]ccc21 [Example 3-99]
Q. Order the items by recorded IC50; the first position goes to the largest value. Give me the labels in the order the question wants.
A. P, R, Q

---

target.under.test: UniProt P23458
test.summary: Jak biochemical HTRF assay, JAK1
condition.parameters: HTRF biochemical assay, recombinant GST-tagged catalytic domain; read-out: JAK1 IC50
readout.kind: IC50 (nM)

N#C[C@H]1CCCC[C@@H]1n1nc(Nc2ccc3c(c2)CN(CC(F)(F)F)C3=O)c2c(=O)[nH]ccc21	0.12
N#C[C@H]1CCCC[C@@H]1n1nc(Nc2ccc3c(c2)CC(C(=O)O)C3)c2c(=O)[nH]ccc21 (stereo partly shown)	0.47
N#C[C@H]1CCCC[C@@H]1n1nc(Nc2ccc(CNCC(F)(F)F)cc2)c2c(=O)[nH]ccc21	0.2
CSCc1cc(Cn2ccnn2)cc(Nc2nn([C@H]3CCCC[C@@H]3C#N)c3cc[nH]c(=O)c23)c1	2
Cc1cc(Nc2nn([C@H]3CCCC[C@@H]3C#N)c3cc[nH]c(=O)c23)ccc1C(C)(C)n1ccnn1	0.17
N#C[C@H]1CCCC[C@@H]1n1nc(Nc2ccc(Cl)cc2)c2c(=O)[nH]ccc21	0.45
N#C[C@H]1CCCC[C@@H]1n1nc(Nc2ccc3c(c2)CN(C(=O)c2cnc(N4CCCCC4)cn2)C3)c2c(=O)[nH]ccc21	0.98
CC1NCc2cc(Nc3nn([C@H]4CCCC[C@@H]4C#N)c4cc[nH]c(=O)c34)ccc21 (mixture of isomers) [Example 12-3]	0.81

A = Cc1cc(Nc2nn([C@@H]3CCCCC[C@H]3C#N)c3cc[nH]c(=O)c23)ccc1C(=O)N1CCCC1 (single isomer, unassigned)
B = N#C[C@H]1CCCC[C@@H]1n1nc(Nc2cc(F)cc(CN)c2)c2c(=O)[nH]ccc21
Q. Between A and B , which one shows the smaller IC50 number? Which one? Tell me its label.
A. A

I = N#C[C@H]1CCCC[C@@H]1n1nc(Nc2ccc3c(c2)CC2(CC2)C3(O)C(F)(F)F)c2c(=O)[nH]ccc21 (single isomer, unassigned) [Example 3-123]
II = CC(C)NS(=O)(=O)c1ccc(Nc2nn([C@H]3CCCC[C@@H]3C#N)c3cc[nH]c(=O)c23)cc1
Q. Between I and II , which one shows the smaller IC50 number? Which one? Tell me its label.
A. II
